These data points were gathered from paper PMC3424542.

# testedTarget: T1, XtrLin28b CSD (Xenopus tropicalis, UniProt B4F6I0 27-114)
# T1 sequence: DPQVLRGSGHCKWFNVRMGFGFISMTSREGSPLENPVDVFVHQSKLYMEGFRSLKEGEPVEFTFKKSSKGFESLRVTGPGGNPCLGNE
# protocolDescription: ITC
pKd: −log10 of the molar value.
measuredMetric: pKd

binder: GUCUUUU (ssRNA) [rG1b]
recordedNumber: 7.57
--
binder: GUCACAC (ssRNA) [rlet-7f (rlet-7f0)]
recordedNumber: 7.34
--
binder: GUCAAAC (ssRNA) [rlet-7f2]
recordedNumber: 7.27
--
binder: GUUUUUU (ssRNA) [rG1]
recordedNumber: 7.46
